Below: a set of entries, each annotated with reported inhibition at 10 µM.
Target: serotonin (5-HT) reuptake (Rattus norvegicus)
Construct: synaptosomes are freshly isolated from areas of the rat brain; from tissue; host or cells: rat brain synaptosomes (P2 fraction)
Sequence (P31652 whole entry): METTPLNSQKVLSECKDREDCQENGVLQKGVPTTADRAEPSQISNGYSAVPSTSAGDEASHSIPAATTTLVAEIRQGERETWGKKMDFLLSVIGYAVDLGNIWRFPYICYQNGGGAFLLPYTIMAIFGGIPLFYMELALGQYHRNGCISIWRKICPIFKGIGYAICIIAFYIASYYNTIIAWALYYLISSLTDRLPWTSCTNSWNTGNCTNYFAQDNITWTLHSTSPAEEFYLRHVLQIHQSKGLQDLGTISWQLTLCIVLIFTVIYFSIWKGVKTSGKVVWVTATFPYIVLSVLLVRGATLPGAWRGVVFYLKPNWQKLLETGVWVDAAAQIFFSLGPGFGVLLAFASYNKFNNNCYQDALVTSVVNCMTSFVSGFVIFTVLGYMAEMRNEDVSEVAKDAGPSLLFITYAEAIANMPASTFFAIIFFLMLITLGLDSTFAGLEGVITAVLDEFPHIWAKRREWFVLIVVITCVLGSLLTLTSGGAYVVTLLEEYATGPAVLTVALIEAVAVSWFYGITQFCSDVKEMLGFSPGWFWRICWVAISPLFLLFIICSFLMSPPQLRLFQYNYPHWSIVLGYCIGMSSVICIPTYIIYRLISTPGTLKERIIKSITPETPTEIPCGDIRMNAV
Assay: Inhibition of serotonin (5HT) reuptake in synaptosomes from rat brain
Format: biochemical
Conditions: test concentration of 10 μM; read-out: 5-HT (inhibition of reuptake of serotonin, % inhibition)
REPORTED_PROPERTY: inhibition at 10 µM (%)

MOLECULE | TARGET_UNDER_TEST | MEASURED
CN(C)C(c1cccs1)C1CCC(CCNC(=O)COC2CCN(S(=O)(=O)c3ccc(Cl)cc3)C2)CC1 (stereo not shown) [Example 66] | serotonin (5-HT) reuptake (Rattus norvegicus) | 85
CN(C)C(c1cccs1)C1CCC(NC(=O)COCCN(C)S(=O)(=O)c2cccc(C(F)(F)F)c2)CC1 (stereo not shown) [Example 152] | serotonin (5-HT) reuptake (Rattus norvegicus) | 87
CN(C)C(c1ccccc1)C1CCC(CNC(=O)COCC2CCCN2S(=O)(=O)c2ccc(Cl)c(Cl)c2)CC1 (stereo not shown) [Example 18] | serotonin (5-HT) reuptake (Rattus norvegicus) | 95
COc1cc(C)c(S(=O)(=O)N(C)CCOCC(=O)NCCC2CCC(C(c3cccc(F)c3)N(C)C)CC2)c(C)c1 (stereo not shown) [Example 197] | serotonin (5-HT) reuptake (Rattus norvegicus) | 85
COc1cc(C)c(S(=O)(=O)N2CCC(CCOCC(=O)NCCC3CCC(C(c4cccs4)N(C)C)CC3)CC2)c(C)c1C (stereo not shown) [Example 75] | serotonin (5-HT) reuptake (Rattus norvegicus) | 96
CN(C)C(c1cccs1)C1CCC(CNC(=O)COCCN(C)S(=O)(=O)c2ccc(F)cc2)CC1 (stereo not shown) [Example 56] | serotonin (5-HT) reuptake (Rattus norvegicus) | 100
COc1ccc(S(=O)(=O)N2CCCCC2COCC(=O)NCC2CCC(C(c3cccs3)N(C)C)CC2)cc1OC (stereo not shown) [Example 133] | serotonin (5-HT) reuptake (Rattus norvegicus) | 88

* * *

Target: human μ opiate receptor (Homo sapiens)
Construct: purchased PerkinElmer Life Sciences, Zaventem, Belgium RB-HOM; host or cells: CHO-K1 cells (membrane preparation)
Sequence (P35372 whole entry): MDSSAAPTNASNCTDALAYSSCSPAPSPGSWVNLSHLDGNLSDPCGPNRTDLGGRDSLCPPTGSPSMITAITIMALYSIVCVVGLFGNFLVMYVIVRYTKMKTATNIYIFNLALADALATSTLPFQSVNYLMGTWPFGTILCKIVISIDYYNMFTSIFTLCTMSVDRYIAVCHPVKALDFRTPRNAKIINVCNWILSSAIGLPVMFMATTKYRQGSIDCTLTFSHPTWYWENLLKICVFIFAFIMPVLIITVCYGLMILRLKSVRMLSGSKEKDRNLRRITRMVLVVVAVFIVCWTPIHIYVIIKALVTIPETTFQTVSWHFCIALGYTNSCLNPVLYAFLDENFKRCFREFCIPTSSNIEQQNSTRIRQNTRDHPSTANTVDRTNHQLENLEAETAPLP
Test: Affinity for the human μ opiate receptor ([3H]-naloxone displacement, CHO-K1 receptor membrane preparation, SPA)
Assay type: binding
Conditions: test concentration of 1 μM; read-out: μ (binding on the μ opioid receptor, % inhibition)
Method: Binding data of the compounds on the μ opioid receptor and data on the inhibition of reuptake of serotonin (5-HT) are given in Table 1. The data for the μ receptor were measured at a test concentration of 1 μM, and those for the serotonin reuptake at 10 μM. The values are stated in % inhibition. […] The receptor affinity for the human p opiate receptor is determined in a homogeneous set-up in microtitre plates. […]
inhibition at 1 µM for assorted compounds

COMPOUND | inhibition at 1 µM [%]
COc1cc(C)c(S(=O)(=O)N(C)CCOCC(=O)NCC2CCC(C(c3ccccc3)N(C)C)CC2)c(C)c1 (stereo not shown) [Example 137] | 89
CN(C)C(c1cccc(F)c1)C1CCC(CCNC(=O)COCCN(C)S(=O)(=O)c2c(Cl)cccc2Cl)CC1 (stereo not shown) [Example 41] | 96
COc1ccc(S(=O)(=O)N2Cc3ccccc3CC2COCC(=O)NCC2CCC(C(c3ccccc3)N(C)C)CC2)cc1 (stereo not shown) [Example 19] | 98
COc1ccc(S(=O)(=O)N2Cc3ccccc3CC2COCC(=O)NCCC2CCC(C(c3cccc(F)c3)N(C)C)CC2)cc1 (stereo not shown) [Example 190] | 83
COc1cc(C)c(S(=O)(=O)N2CCC(OCC(=O)NC3CCC(C(c4cccs4)N(C)C)CC3)CC2)c(C)c1C (stereo not shown) [Example 1] | 100
COc1cc(C)c(S(=O)(=O)N2CCC(OCC(=O)NC3CCC(C(c4cccs4)N(C)C)CC3)C2)c(C)c1 (stereo not shown) [Example 98] | 91
CN(C)C(c1cccs1)C1CCC(CNC(=O)COCCN(C)S(=O)(=O)c2ccc(Cl)cc2)CC1 (stereo not shown) [Example 55] | 95

Cited source for all entries: patent US8106055B2
